Assay remarks: Lipophilicity, log D of the compound at pH 1.7
Format: physicochemical
Reported conditions: buffer
Readout kind: logD

Compound: CN1CCN2c3c(cccc31)[C@@H]1CN(CCCC(=O)c3ccc(F)cc3)CC[C@@H]12.Cc1ccc(S(=O)(=O)O)cc1 [LUMATEPERONE TOSYLATE]
Recorded number: 0.55

* * *

Assay remarks: Plasma protein binding in human
Assay type: ADME, cell-free
Reported conditions: read-out: PPB (converted)

Compound: CN1CCN2c3c(cccc31)[C@@H]1CN(CCCC(=O)c3ccc(F)cc3)CC[C@@H]12.Cc1ccc(S(=O)(=O)O)cc1 [LUMATEPERONE TOSYLATE]
fraction unbound: 0.026
